- Tested on: Escherichia coli
- Experiment notes: Bactericidal activity against Escherichia coli MG1655 planktonic forms
- Format: functional
Observable: MBC (µM)
Please reply with the bare figure in µM and do not write the unit itself.

INSERT INTO assay_data (smiles_representation, observable, numeric_result) VALUES
  ('CCCCCCCCCCCCCC(=O)N[C@@H](CCC(=O)O)C(=O)N[C@@H](CC(C)C)C(=O)N[C@@H](CC(=O)O)C(=O)N[C@@H](CCCNC(=N)N)C(=O)N[C@H](C(=O)NCC(=O)N[C@@H](Cc1ccc(O)cc1)C(=O)NCC(=O)N[C@H](C(=O)N[C@@H](C)C(=O)N[C@@H](CCCNC(=N)N)C(=O)N[C@@H](CCCNC(=N)N)C(=O)N[C@H](CCCCN)C(=O)N[C@H](CCCCN)C(=O)N[C@@H](CCCNC(=N)N)C(=O)O)[C@@H](C)O)[C@@H](C)CC', 'MBC', 5);

Consider the additional compound presented here.
// query Which MBC is listed for CC[C@H](C)[C@H](NC(=O)[C@H](CCCNC(=N)N)NC(=O)[C@H](CC(=O)O)NC(=O)[C@H](CC(C)C)NC(=O)[C@@H](N)CCC(=O)O)C(=O)NCC(=O)N[C@@H](Cc1ccc(O)cc1)C(=O)NCC(=O)N[C@H](C(=O)N[C@@H](C)C(=O)N[C@@H](CCCNC(=N)N)C(=O)N[C@@H](CCCNC(=N)N)C(=O)N[C@H](CCCCN)C(=O)N[C@H](CCCCN)C(=O)N[C@@H](CCCNC(=N)N)C(=O)O)[C@@H](C)O ?
// result 20
